AUC for assorted molecules
# condition context: rat, in vivo, iv, 2 mg/kg
Bridge positions count the residues as written; N and C are the ends. Square brackets hold non-standard residues; d marks the D form. Peptide text beside a SMILES is read from it. * marks the point of attachment. Piperazin2one(3S-Bu,6R-CO) = CCCC[C@@H]1NC[C@H](C(=O)*)NC1=O; X1 = N=C(N)NCCC[C@H]1C(=O)N[C@@H](C(N)=O)CN1*; Nle = CCCC[C@H](N)C(=O)O; Orn = NCCC[C@H](N)C(=O)O

{"molecule": "CCCC[C@@H]1NC[C@H](C(=O)N[C@H]2CSSC[C@@H](C(=O)N[C@@H](Cc3ccc(O)cc3)C(=O)N3C[C@H](C(N)=O)NC(=O)[C@@H]3CCCNC(=N)N)NC(=O)[C@H](CO)NC(=O)[C@H]([C@@H](C)CC)NC(=O)[C@H](CCCNC(=N)N)NC(=O)[C@H](C)NC(=O)[C@H](CCCC)NC(=O)[C@H](CCCNC(=N)N)NC(=O)CNC(=O)CNC(=O)[C@H](Cc3ccccc3)NC(=O)[C@H](Cc3c[nH]cn3)NC2=O)NC1=O", "AUC / µM·h": 0.01}
{"molecule": "CCCC[C@@H]1NC[C@H](C(=O)N[C@H]2CSSC[C@@H](C(=O)N[C@@H](Cc3ccc(O)cc3)C(=O)N3C[C@H](C(N)=O)NC(=O)[C@@H]3CCCNC(=N)N)NC(=O)[C@H](CO)NC(=O)[C@H]([C@@H](C)CC)NC(=O)[C@H](CCCN)NC(=O)[C@H](CC(=O)O)NC(=O)[C@H](CCCC)NC(=O)[C@H](CCCNC(=N)N)NC(=O)CNC(=O)CNC(=O)[C@H](Cc3ccccc3)NC(=O)[C@H](Cc3c[nH]cn3)NC2=O)NC1=O [1-55] ({Piperazin2one(3S-Bu,6R-CO)}-CHFGGR[Nle]D[Orn]ISCY-X1; disulfide 1-12)", "AUC / µM·h": 0.828}
